test system: SK-MEL-5 melanoma; assay: NCI-60 one-dose screen, 48 h (100 = growth as untreated, 0 = no growth, -100 = all killed); settings: 10 µM unless noted
This is part of a sample that, as a whole, favours compounds with a hit. Of some 83,000 tested, about 20% had one in any assay.
propertyName: growth (%)
One number for each entry, in %.

Reference set (10 entries):
c1c2c(cc3c1OCO3)Cc1cc3c(cc1Cc1cc4c(cc1C2)OCO4)OCO3: 108
NS(=O)(=O)N(c1cc(C(F)(F)F)cc(C(F)(F)F)c1)C1CCN(Cc2ccc(F)cc2)CC1: 32.2
O=C(O)c1cccnc1Br: 109
CCCCCCCCCCCCN1CCCC(C)C1 (centres undefined): 68.4
COC1/C=C\OC2(C)Oc3c(C)c(O)c4c(O)c(c(CN(C)CCO)c(O)c4c3C2=O)NC(=O)/C(C)=C\C=C/C(C)C(O)C(C)C(O)C(C)C(OC(C)=O)C1C (centres undefined): 108
COc1ccc2nc3cc(Cl)ccc3c(N3CCN(c4nccc(Nc5ccc(Cl)cc5)n4)CC3)c2c1: 86.7
O=C1c2cc3c(cc2-c2c1c1cc(F)c(F)cc1c(=O)n2C[C@H](O)CO)OCO3: -91.5
CCCCCCCCCCCCS(=O)CC(C)O (centres undefined): 103
COc1cc(C2CC(=O)Nc3c2cnn3Cc2ccco2)cc2c1OCCO2 (centres undefined): 75.5
COc1ccc(S(=O)(=O)NCCNc2nccc(-c3c(-c4cccc([N+](=O)[O-])c4)nc4sccn34)n2)cc1: 63.6

Hey, quick one: what's growth for each of these?
1. CCOC(=O)c1c2c(n3ccc(NC(=O)CCN4CCOCC4)cc13)C(=O)c1ncccc1C2=O
2. COc1c2ccccc2c(OC)c2[nH]c(=O)ccc12
3. O=C1/C(=C/c2ccccc2)CN(CCC(=O)N2C/C(=C\c3ccccc3)C(=O)/C(=C/c3ccccc3)C2)C/C1=C\c1ccccc1
4. COc1ccc(C(=O)c2sc3nc4c(cc3c2N)CCCC4)cc1OC
5. Cc1ccc(/C=C2\Oc3cc(OCC(=O)c4ccc(Cl)cc4)ccc3C2=O)cc1
6. O=c1c2cccc3c(NC4CCCCC4)ccc(c32)c2nc3ccccc3n12

Reply text:
42.3
-96.7
60.5
-11.4
86.3
66.1

Hey, quick one: what's growth for each of these?
1. CC(=O)O[C@H]1CC[C@]2(C)[C@H]3CC[C@@H]4[C@H]5[C@H](C(C)C)CC[C@]5(C(=O)OCC(CO)(CO)N=C(N)N)CC[C@@]4(C)[C@]3(C)CC[C@H]2C1(C)C
2. COc1ccc(C(=O)/C=C/c2c(Cl)c3c(c(OC)c2Cl)OCC(=O)N3)cc1

Reply text:
1. 81.2
2. 21.2

Inquiry: Requested field: growth. Item: `O=C1Nc2c(ccc(Cl)c2Cl)/C1=C/c1cc(Br)c(O)c(Br)c1`
Reply text: 23.2

----------
system: HCC-2998 colon; test: NCI-60 one-dose screen, 48 h (100 = growth as untreated, 0 = no growth, -100 = all killed); settings: 10 µM unless noted
Compounds without any hit were thinned out: in the full panel of roughly 83,000, 20% have a hit.
propertyName: growth (%)
Numbers only, in %.

Hey, quick one: what's growth for each of these?
1. C=C1CC2(OC1=O)C(=O)N(CCCCCCCCCCCCN1C(=O)C3(CC(=C)C(=O)O3)c3ccccc31)c1ccccc12 (stereo not given)
2. O=C1Nc2ccccc2C12CC(c1ccccc1)=NN2 (stereo not given)
3. CCC(c1ccccc1)C(CC)c1ccc(O)c(O)c1 (stereo not given)
4. COc1ccc(C(=O)c2sc3nc4c(c(C(F)(F)F)c3c2N)CN(C(C)=O)CC4)cc1OC
5. CCc1ccc(C(c2ccc(CC)cc2)C(Cl)(Cl)CCl)cc1

Reply text:
1. 92.8
2. 75.6
3. 97.5
4. 94.9
5. 90.1

----------
system: SNB-75 CNS; experiment: NCI-60 one-dose screen, 48 h (100 = growth as untreated, 0 = no growth, -100 = all killed); conditions: 10 µM unless noted
About 83,000 compounds went through this panel and 20% of them were active in at least one assay; those are over-represented in the sample as a whole. The source made the active and inactive calls. The calls were made as follows: active = growth percent below 10; inactive = the rest.
What growth was measured for each of the following?

Reference set (5 entries):
COc1ccc(-c2c(C)noc2-c2ccc(O)cc2O)cc1: 90.9% (inactive)
CCOC(=O)/C=C/C(=O)[C@H](CC(C)C)NC(=O)[C@H](Cc1ccccc1)NC(=O)OCc1ccccc1: 69.2% (inactive)
NCc1cn2cc(Cl)sc2n1: 92.6% (inactive)
Cn1cc(-c2ccc(-c3cn(C)c4ncccc34)[nH]2)c2cccnc21: 59.7% (inactive)
COC1=CC(=O)C(OC)=C(OC)C1=O: 90.1% (inactive)

Inquiry: Requested field: growth. Item: CCC(c1ccccc1)C(CC)c1ccc(O)c(O)c1 (stereo unspecified)
Reply text: 86.4% (inactive)

----------
test system: HT29 colon; assay: NCI-60 one-dose screen, 48 h (100 = growth as untreated, 0 = no growth, -100 = all killed); details: 10 µM unless noted
Compounds without any hit were thinned out: in the full panel of roughly 83,000, 20% have a hit.
propertyName: growth (%)
Numbers only, in %.

Reference set (2 entries):
Nc1nc(SCc2ccccc2)c2ncn(C3CCCC3)c2n1: 114
CN1C2CCC1/C(=C\c1ccc(Cl)cc1)C1=C2[C@@H](c2ccc(Cl)cc2)C(C#N)=C(N)O1 (stereo not given in full): 65.2

Hey, quick one: what's growth for each of these?
1. CC/C=C\C[C@H](O)C/C=C1/C(=O)C=C[C@@H]1C/C=C\CCCC(N)=O
2. CNC(=S)N/N=C/CSC/C=N/NC(=S)NC
3. CCOC(=S)SCc1ccc(Cl)cc1
4. COc1ccccc1-c1ccc2c(N)c(C(=O)c3ccc4c(c3)OCO4)sc2n1
5. O=C(O)c1ccccc1Nc1cccc(S(F)(F)(F)(F)F)c1
6. COc1cc(NCCCCN=C(N)N)c2ncccc2c1

Reply text:
[-1.88, 24.4, 103, 47, 84.2, 79.6]

Hey, quick one: what's growth for each of these?
1. CCN(CC)CC(C)Nc1ccc([N+](=O)[O-])c2sc3ccccc3c(=O)c12 (stereo not given)
2. O=C1/C(=C/c2ccccc2)CN(CCC(=O)N2C/C(=C\c3ccccc3)C(=O)/C(=C/c3ccccc3)C2)C/C1=C\c1ccccc1

Reply text:
1: 12; 2: -13.5

----------
test system: HCC-2998 colon; test: NCI-60 one-dose screen, 48 h; settings: 10 µM unless noted
Compounds without any hit were thinned out: in the full panel of roughly 83,000, 20% have a hit. Activity calls are given as the source filed them. Rule for the calls: active = growth percent below 10; inactive = the rest.
Your response should consist of one outcome taken from Y (active), N (inactive)

For orientation, consider the following solved cases.
COc1ccc(CN(c2ccc(C)cc2)C2OC(=O)c3ccccc32)cc1OC (stereo unspecified): N
CCN(CC)CC(O)CNc1c2ccc([N+](=O)[O-])cc2nc2cc(OC)c(OC)cc12 (stereo unspecified): Y
CCN(CC)c1ccc(/C=C/C2=[N+](C)c3ccccc3C2(C)C)cc1: N
N#Cc1c(N)nc(N)nc1Nc1ccc(Br)cc1: N
COc1ccc(OCC(=O)Nc2ccc(-c3nc4ccccc4s3)cc2C)cc1: N

Next:
Inquiry: Test call for this compound, please: `O=C1/C(=C/c2ccc(F)cc2)CN(C(=O)CCN2CCC(=NO)CC2)C/C1=C\c1ccc(F)cc1`
Reply text: Y

----------
tested on: SK-MEL-2 melanoma; experiment: NCI-60 one-dose screen, 48 h (100 = growth as untreated, 0 = no growth, -100 = all killed); settings: 10 µM unless noted
The panel holds about 83,000 compounds, 20% with a hit somewhere; the sample as a whole holds those more often.
propertyName: growth (%)
One number for each entry, in %.

COc1ccc2[nH]c(=O)c(/C=C/C(=O)c3ccc(Nc4nccc(-c5ccc6ccccc6c5)n4)cc3)cc2c1: 102
COc1ccc(C(=O)c2sc3nc(-c4ccccc4OC)ccc3c2N)cc1OC: 89.5
COc1ccc(-c2csc(NC(=O)CN3CCN(c4cc5c(cc4F)c(=O)c(C(=O)O)cn5C4CC4)CC3)n2)cc1: -11.5

Hey, quick one: what's growth for each of these?
1. Cn1c2ccccc2c2c3[nH]c(=O)[nH]c(=O)c3c3c4ccccc4n(C)c3c21
2. COc1cc2c(c(OC)c1OC)-c1ccc(N=NC(N)=S)c(=O)cc1[C@@H](NC(C)=O)CC2
3. O=C1C2CC=CCC2C(=O)N1CNc1ccc(Cl)cc1 (centres undefined)
4. CC(=O)C1=C(O)C=C2Oc3c(C(=O)/C=C/c4cc(C(F)(F)F)cc(C(F)(F)F)c4)c(O)c(C)c(O)c3[C@]2(C)C1=O
5. COc1cc(C2C(C(=O)c3cccs3)=C(O)C(=O)N2CCN2CCOCC2)cc(OC)c1OC (centres undefined)
6. COc1ccc(-c2cc(C(=O)N=Nc3c(O)[nH]c4ccccc34)no2)cc1
7. Cc1nc2nc(N)nc(N)c2nc1C

Reply text:
67
-10.1
94.2
-49.7
102
97.9
86.5
